# Measurement Target: human FOLH1 (Homo sapiens (Human))
# Sequence (Q04609 whole entry): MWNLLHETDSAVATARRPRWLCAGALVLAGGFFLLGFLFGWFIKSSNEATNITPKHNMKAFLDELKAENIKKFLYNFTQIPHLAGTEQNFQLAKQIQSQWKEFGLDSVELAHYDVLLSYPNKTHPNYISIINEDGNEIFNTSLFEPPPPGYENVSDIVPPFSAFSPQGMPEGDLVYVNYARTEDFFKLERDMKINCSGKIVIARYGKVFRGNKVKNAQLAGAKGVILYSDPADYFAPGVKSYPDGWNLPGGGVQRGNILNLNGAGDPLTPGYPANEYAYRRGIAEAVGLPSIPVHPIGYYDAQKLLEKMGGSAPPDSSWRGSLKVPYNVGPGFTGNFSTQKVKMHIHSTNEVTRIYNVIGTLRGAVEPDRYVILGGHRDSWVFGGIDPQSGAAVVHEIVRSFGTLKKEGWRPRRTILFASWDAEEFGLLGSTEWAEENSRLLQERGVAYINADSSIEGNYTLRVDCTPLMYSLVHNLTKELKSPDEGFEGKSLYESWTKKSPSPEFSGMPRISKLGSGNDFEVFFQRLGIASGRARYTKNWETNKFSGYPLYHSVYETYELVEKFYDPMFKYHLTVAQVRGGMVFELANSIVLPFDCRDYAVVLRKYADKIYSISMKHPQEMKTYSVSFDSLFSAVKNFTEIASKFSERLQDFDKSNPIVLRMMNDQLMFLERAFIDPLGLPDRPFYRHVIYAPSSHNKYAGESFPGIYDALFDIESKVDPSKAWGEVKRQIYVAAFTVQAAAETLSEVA
# Test Method Notes: SPR analysis of binding kinetics to biotinylated FOLH1 (Biacore 8K)
# Measurement Context: ligand PSMA, dissociation rate
Overview of recorded koff for various molecules

[
  {
    "Molecule": "CC(=O)NCCOCCOCCOCCC(=O)N(CCCOc1cc(C(F)(F)F)cc(C(F)(F)F)c1)CC(=O)N[C@@H](Cc1ccc2ccccc2c1)C(=O)NCCCC[C@H](NC(=O)N[C@@H](CCC(=O)O)C(=O)O)C(=O)O",
    "Unit Label": "s⁻¹",
    "koff": 0.000397
  },
  {
    "Molecule": "CC(=O)NCCOCCOCCOCCC(=O)NC[C@H]1CC[C@H](C(=O)N[C@@H](Cc2ccc(N)cc2)C(=O)NCCCC[C@H](NC(=O)N[C@@H](CCC(=O)O)C(=O)O)C(=O)O)CC1",
    "Unit Label": "s⁻¹",
    "koff": 0.000618
  },
  {
    "Molecule": "CC(=O)NCCOCCOCCOCCC(=O)N[C@@H](Cc1ccc(C(=O)O)cc1)C(=O)NCC(=O)N[C@@H](Cc1ccc2ccccc2c1)C(=O)NCCCC[C@H](NC(=O)N[C@@H](CCC(=O)O)C(=O)O)C(=O)O",
    "Unit Label": "s⁻¹",
    "koff": 0.000261
  },
  {
    "Molecule": "CC(=O)NCCOCCOCCOCCC(=O)N[C@@H]1C[C@@H](C(=O)NCC(=O)N[C@@H](Cc2ccc3ccccc3c2)C(=O)NCCCC[C@H](NC(=O)N[C@@H](CCC(=O)O)C(=O)O)C(=O)O)N(C(=O)CCCOc2cc(C#N)cc(C#N)c2)C1",
    "Unit Label": "s⁻¹",
    "koff": 0.000301
  },
  {
    "Molecule": "CC(=O)NCCOCCOCCOCCC(=O)N[C@@H]1C[C@@H](C(=O)N[C@@H](Cc2ccc3ccccc3c2)C(=O)NCCCC[C@H](NC(=O)N[C@@H](CCC(=O)O)C(=O)O)C(=O)O)N(C(=O)CCCOc2cc(C#N)cc(C#N)c2)C1 (stereo in doubt)",
    "Unit Label": "s⁻¹",
    "koff": 0.000381
  },
  {
    "Molecule": "CC(=O)NCCOCCOCCOCCC(=O)NC[C@H]1CC[C@H](C(=O)N[C@@H](Cc2ccc(C(=O)O)cc2)C(=O)NCCCC[C@H](NC(=O)N[C@@H](CCC(=O)O)C(=O)O)C(=O)O)CC1",
    "Unit Label": "s⁻¹",
    "koff": 0.00194
  },
  {
    "Molecule": "CC(=O)NCCOCCOCCOCCC(=O)N[C@@H](Cc1ccc(C(=O)O)cc1)C(=O)NCCC(=O)N[C@@H](Cc1ccc2ccccc2c1)C(=O)NCCCC[C@H](NC(=O)N[C@@H](CCC(=O)O)C(=O)O)C(=O)O",
    "Unit Label": "s⁻¹",
    "koff": 0.000242
  },
  {
    "Molecule": "CC(=O)NCCOCCOCCOCCC(=O)NC[C@H]1CC[C@H](C(=O)N[C@@H](Cc2ccccc2)C(=O)NCCCC[C@H](NC(=O)N[C@@H](CCC(=O)O)C(=O)O)C(=O)O)CC1",
    "Unit Label": "s⁻¹",
    "koff": 0.000207
  },
  {
    "Molecule": "CC(=O)NCCOCCOCCOCCC(=O)N1C[C@H](NC(=O)CCCOc2cc(C#N)cc(C#N)c2)C[C@H]1C(=O)N[C@@H](Cc1ccc2ccccc2c1)C(=O)NCCCC[C@H](NC(=O)N[C@@H](CCC(=O)O)C(=O)O)C(=O)O",
    "Unit Label": "s⁻¹",
    "koff": 0.000599
  }
]
